Test system: CAKI-1 renal
Experiment: NCI tumour cell line growth inhibition, 48 h
Where a SMILES comes first, the peptide text is derived from it. The star is where a group is joined. Palmitoyl = CCCCCCCCCCCCCCCC(=O)*
Measured log10 TGI by item
measured.property: log10 TGI (log10 of the value in µM)

>>> observed("CCCCCCCCCCCCCCCC(=O)N1CCCC1C(=O)NCC(=O)NC(Cc1ccccc1)C(=O)NC(C)C(=O)NC(CO)C(=O)NC(Cc1ccc(O)cc1)C(=O)NC(CCCCN)C(=O)NC(CC(C)C)C(=O)NC(CCCN=C(N)N)C(=O)N1CCCC1C(=O)NCC(N)=O (stereo not given) (Palmitoyl-PGFASYKLRPG-NH2; configuration not given here)")
1.51
>>> observed("O=[N+]([O-])/C(C(Cl)=C(Cl)Cl)=C(/Cl)SCc1ccccc1")
1.10
>>> observed("COc1ccc(N(CC(=O)NCCC[Te]c2ccccc2)C(=O)CNC(=O)OC(C)(C)C)cc1")
0.75
>>> observed("COc1cc2nc(-c3cc(F)ccc3O)nc(N[C@@H]3CNC[C@H]3C(C)(C)O)c2cc1OC")
0.40
>>> observed("Cc1cccc2c3c(sc12)C(c1ccc(Cl)cc1)C(C#N)=C(N)O3 (stereo not given)")
1.16
>>> observed("O=[N+]([O-])c1ccc(C(=S)Nc2ccccc2)o1")
1.14
>>> observed("Cc1cc(C#Cc2ccc(C(C)(C)C)cc2)ccc1-n1c(/C=C/c2ccc(O)cc2O)nc2ccccc2c1=O")
1.21
>>> observed("O=S(=O)(/C=C/C(=C/c1ccccc1)S(=O)(=O)c1ccccc1)c1ccccc1")
0.46
>>> observed("C=CCN1CC(=O)N2[C@@H](Cc3ccc(O)cc3F)C(=O)N(Cc3cccc(N4CC(N5CCN(CC)CC5)C4)n3)C[C@@H]2N1C(=O)NCc1ccccc1")
-0.30
>>> observed("O=C(/C=C/c1ccc(Oc2cc(C(=O)/C=C/c3ccc(O)cc3)c(O)cc2O)cc1)c1ccc(O)cc1O")
1.26
>>> observed("COc1ccc2c(c1)c1c(n2CCN(C)C)-c2ccccc2CC1")
1.44
>>> observed("COC(=O)[C@H]1CCCN1C(=O)[C@H]1CCCN1C(=O)[C@@H](Cc1c[nH]c2ccccc12)NC(=S)Nc1cc(C(F)(F)F)cc(C(F)(F)F)c1")
0.75

----------
Test system: K-562 leukemia
Experiment: NCI tumour cell line growth inhibition, 48 h
Measured TGI by item
measured.property: TGI

>>> observed("O=[N+]([O-])c1ccc(C(=S)Nc2ccccc2)o1")
"6.28 µM"
>>> observed("CCOP1(=O)C=C(C)C(Cl)=C(C)C1 (stereo not drawn)")
"90.5 µM"
>>> observed("O=C(/C=C/c1cccc(O)c1)c1cccc(-n2cc(-c3ccccc3)[nH]c2=O)c1")
"> 24.8 µM"
>>> observed("OC(C#Cc1ccccc1)(c1ccccc1)c1ccccc1")
"> 100 µM"
>>> observed("N#CC1=C(/N=C/c2ccccc2)Oc2c(ccc3ccccc23)C1c1ccccc1 (stereo not drawn)")
"> 100 µM"
>>> observed("Cc1ccccc1NC(=O)C(=O)C(C#N)c1ccccc1C (stereo not drawn)")
"61.5 µM"
>>> observed("Cc1ccc2nc(N/N=C/c3sccc3C)cc(C)c2c1")
"> 100 µM"
>>> observed("COC(=O)/C=C(\\CC(=O)OC)n1nnnc1[C@@H]1C[C@H](COC(c2ccccc2)(c2ccccc2)c2ccccc2)[C@H]2OC(C)(C)O[C@H]21")
"> 100 µM"
>>> observed("c1ccc2c(c1)Nc1ccncc1S2")
"> 100 µM"
>>> observed("NC1CC(=O)c2c1sc(Cl)c2Cl (stereo not drawn)")
"> 100 µM"
>>> observed("Cc1cc(N(CCCNc2ccnc3cc(Cl)ccc23)Cc2ccco2)nc(N2CCN(C)CC2)n1")
"10.4 µM"
>>> observed("[O-]c1c2cc(-[n+]3c(-c4ccccc4)cc(-c4ccccc4)cc3-c3ccccc3)cc1COCCOCCOCCOCCOC2")
"> 100 µM"
>>> observed("CSc1nc2sc3c(c2c(=O)n1-c1ccc(C(C)C)cc1)CCC(=O)C3")
"9.04 µM"
>>> observed("CCOP1(=O)CC(C)=C(Cl)C(O)C1 (stereo not drawn)")
"> 100 µM"
>>> observed("NS(=O)(=O)c1ccc(-c2cc3ccncc3cc2OCc2ccccc2)cc1")
"> 25 µM"
>>> observed("CC1OC(OC2C(O)CC(OC3C(O)CC(OC4CCC5(C)C(CCC6C5CC(O)C5(C)C(C7=CC(=O)OC7)CCC65O)C4)OC3C)OC2C)CC(O)C1O (stereo not drawn)")
"0.122 µM"
>>> observed("c1ccc(-c2nc(N3CCNCC3)c3oc(-c4ccccc4)nc3n2)cc1")
"2.35 µM"
>>> observed("[N-]=[N+]=NI1OC(=O)c2ccccc21")
"> 100 µM"
>>> observed("COc1cc(C(C)O)c[n+](Cc2ccccc2)c1 (stereo not drawn)")
"> 100 µM"
>>> observed("Nc1c([N+](=O)[O-])nc(Cl)c2nncn12")
"> 100 µM"
>>> observed("C/C(=C\\CBr)CCC(Br)C(C)(C)Cl (stereo not drawn)")
"> 100 µM"
>>> observed("COC(=O)c1ccc2c(c1)S/C(=C/c1ccc3ccc4cccc5ccc1c3c45)S2")
"> 100 µM"
>>> observed("COC(=O)C(CCSC)NC(=O)CNC(=O)CSc1nnc(COc2ccc(Cl)cc2)n1-c1ccccc1 (stereo not drawn)")
"> 100 µM"
>>> observed("C=CCN1CC(=O)N2[C@@H](Cc3ccc(O)cc3F)C(=O)N(Cc3cccc(N4CC(N5CCN(CC)CC5)C4)n3)C[C@@H]2N1C(=O)NCc1ccccc1")
"> 100 µM"
>>> observed("NS(=O)(=O)c1nnc(NS(=O)(=O)C(F)(F)F)s1")
"> 100 µM"
>>> observed("CCOC(=O)c1sc2nc(SC)nc3c2c1NCN3c1ccc2c(c1)OCO2")
"> 100 µM"
>>> observed("CCOC(=O)NNC(=O)NCc1cccc(CNC(=O)NNC(=O)OCC)c1")
"> 100 µM"
>>> observed("COCCNC(=O)C1C(=O)C(=O)N(CCOC)C1=O (stereo not drawn)")
"> 100 µM"
>>> observed("COc1ccc(/C=C(\\C#N)n2nnc3c(F)cccc32)cc1")
"> 100 µM"
>>> observed("O=C(c1cccs1)N(C(=S)OCCOc1ccccc1)c1ccccc1")
"> 100 µM"
>>> observed("O=C(O)CCC(=O)c1ccc2sc3ccccc3c2c1")
"> 100 µM"
>>> observed("CC(C)(C)C1=CC(C)(n2[nH]c(=O)n(-c3ccccc3)c2=O)C=C(C(C)(C)C)C1=O")
"> 100 µM"
>>> observed("C[N+](C)(C)CC1CCCC1=O (stereo not drawn)")
"> 100 µM"
>>> observed("N#CC(c1ccccn1)c1nc2ccccc2[nH]1 (stereo not drawn)")
"> 100 µM"
>>> observed("Oc1c(I)cc(I)c2cccnc12")
"> 100 µM"
>>> observed("O=C(CC1(O)C(=O)N(Cc2ccccc2)c2ccccc21)c1ccc(C(=O)NCC2CCC3(CC2)OOC2(CCCCC2)OO3)cc1 (stereo not drawn)")
"4.83 µM"
>>> observed("N[C@H](C(=O)O)[C@@H]1CC(Br)=NO1")
"> 100 µM"
>>> observed("COC(=O)c1cncc(/C=C/c2c(C)cc(O)cc2C)c1")
"> 19 µM"
>>> observed("COc1ccc(OC)c(CNc2ccc(C(=O)O)cc2)c1")
"> 100 µM"
>>> observed("COc1ccc(N2C(=O)/C(=C\\c3cc(OC)c(OC)c(OC)c3)SC2c2ccccc2)cc1 (stereo not drawn)")
"> 100 µM"
>>> observed("O=C(CCCCCCN1CC(=O)N2[C@@H](c3ccc(Cl)c(Cl)c3)c3[nH]c4ccccc4c3C[C@H]2C1=O)NO")
"21.4 µM"
>>> observed("COC(=O)CCCCC(=O)c1c(C)[nH]c(/C=C2\\N=C(c3ccc[nH]3)C=C2OC)c1C")
"1.77 µM"
>>> observed("CC1(C)CC(=O)C(/C(=N/NC(=S)NN)C(=O)Nc2nc3ccc([N+](=O)[O-])cc3s2)C(=O)C1")
"> 100 µM"
